All figures here come from patent US20100160324A1.

# system.tested: Activated CDK2/CyclinA (Homo sapiens, UniProt P24941)
# assay.method.text: Activated CDK2/CyclinA kinase inhibitory activity assay
# run.parameters: read-out: IC50 against CDK2 activity
pIC50: −log10 of the molar value.
reported.endpoint: pIC50

Name the recorded pIC50 for `O=C(Nc1c[nH]nc1-c1cccnc1)c1c(F)cccc1F` .
> 6.00

----------
# system.tested: CDK1/CyclinB (Homo sapiens, UniProt P06493)
# Sequence (P06493 whole entry): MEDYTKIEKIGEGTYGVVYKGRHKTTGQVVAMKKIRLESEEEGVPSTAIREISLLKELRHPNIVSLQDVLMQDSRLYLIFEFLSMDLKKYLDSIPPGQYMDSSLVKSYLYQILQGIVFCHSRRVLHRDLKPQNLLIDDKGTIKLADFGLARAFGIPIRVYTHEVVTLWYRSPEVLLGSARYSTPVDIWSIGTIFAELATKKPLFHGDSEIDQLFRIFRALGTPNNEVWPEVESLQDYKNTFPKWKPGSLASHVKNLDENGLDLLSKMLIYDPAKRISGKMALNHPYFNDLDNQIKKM
# Sequence (P14635 whole entry partner): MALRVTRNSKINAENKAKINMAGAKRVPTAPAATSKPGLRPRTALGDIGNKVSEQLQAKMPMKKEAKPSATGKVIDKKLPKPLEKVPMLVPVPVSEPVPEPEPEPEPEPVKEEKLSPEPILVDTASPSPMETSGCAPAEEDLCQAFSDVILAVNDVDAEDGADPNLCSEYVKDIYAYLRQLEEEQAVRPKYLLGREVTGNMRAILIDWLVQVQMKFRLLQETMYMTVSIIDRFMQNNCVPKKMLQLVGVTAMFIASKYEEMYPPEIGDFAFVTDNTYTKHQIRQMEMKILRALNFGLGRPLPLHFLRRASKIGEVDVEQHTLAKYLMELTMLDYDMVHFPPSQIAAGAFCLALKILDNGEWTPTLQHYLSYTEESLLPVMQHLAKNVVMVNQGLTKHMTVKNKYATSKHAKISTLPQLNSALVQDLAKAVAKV
# assay.method.text: Activated CDK1/CyclinB activity assay
# run.parameters: read-out: IC50 against CDK1 activity
# Method: Measurement of Activated CDK1/Cycling Activity Assay (IC50) CDK1/CyclinB assay is identical to the CDK2/CyclinA above except that CDK1/CyclinB (Upstate Discovery) is used and the enzyme is diluted to 6.25 nM.
reported.endpoint: IC50

Name the recorded IC50 for `O=C(Nc1c[nH]nc1-c1cccnc1)c1c(F)cccc1F` .
< 1000 nM
